EXPERIMENTAL_TARGET: T1, rHuman HGF R/c-MET/Fc Chimera, CF (R&D Systems Cat#358-MT/CF) (human, UniProt P08581 25-932)
T1 construct: Bought recombinant protein; also called HGF R/Fc; hepatocyte growth factor receptor
T1 sequence (P08581 25-932, change not shown): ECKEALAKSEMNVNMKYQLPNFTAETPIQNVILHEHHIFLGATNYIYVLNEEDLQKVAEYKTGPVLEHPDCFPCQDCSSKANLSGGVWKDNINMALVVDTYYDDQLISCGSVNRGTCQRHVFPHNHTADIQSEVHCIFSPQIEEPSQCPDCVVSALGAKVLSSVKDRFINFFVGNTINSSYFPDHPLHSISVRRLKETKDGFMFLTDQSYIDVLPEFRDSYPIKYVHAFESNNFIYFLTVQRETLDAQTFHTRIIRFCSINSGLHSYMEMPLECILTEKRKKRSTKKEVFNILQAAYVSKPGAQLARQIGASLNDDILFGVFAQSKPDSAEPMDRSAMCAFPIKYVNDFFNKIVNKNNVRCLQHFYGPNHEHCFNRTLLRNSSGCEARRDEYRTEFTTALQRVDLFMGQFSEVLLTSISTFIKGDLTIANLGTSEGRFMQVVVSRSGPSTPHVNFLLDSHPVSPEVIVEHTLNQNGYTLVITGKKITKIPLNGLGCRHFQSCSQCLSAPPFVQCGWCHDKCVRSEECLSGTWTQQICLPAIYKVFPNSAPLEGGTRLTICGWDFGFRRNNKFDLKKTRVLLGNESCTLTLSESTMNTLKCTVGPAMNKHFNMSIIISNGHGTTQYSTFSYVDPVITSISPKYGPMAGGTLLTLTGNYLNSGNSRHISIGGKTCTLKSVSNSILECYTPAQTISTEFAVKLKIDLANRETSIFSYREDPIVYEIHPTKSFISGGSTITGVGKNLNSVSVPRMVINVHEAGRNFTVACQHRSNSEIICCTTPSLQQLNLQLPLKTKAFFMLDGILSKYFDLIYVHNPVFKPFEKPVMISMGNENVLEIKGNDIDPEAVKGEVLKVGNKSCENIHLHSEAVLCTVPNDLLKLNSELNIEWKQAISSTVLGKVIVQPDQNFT
METHOD: ECL multispot (MSD) binding assay, antigen spotted on plate;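 further: purified Fab incubated 1 h at 20 °C on antigen spots, detected with TAG-labelled antibody, electrochemiluminescence compared with each well's blank, signal-to-blank ratio ≥4 counted as hit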
Exercise: state measured ECL signal for each of the binders provided.
Response field accepts a number only; no unit should be typed.

Exercise: Param item = Fab VH1-46_IGHD6-6*01_IGHJ1*01 S102A/S103P/S104F/H111F (APFF) & L6_IGKJ1*01 S31V (Fab, V domains shown, Tested as Fab (CH1 with His6/Flag tags, kappa CL) made in E. coli; also called APFF / S31V) VH: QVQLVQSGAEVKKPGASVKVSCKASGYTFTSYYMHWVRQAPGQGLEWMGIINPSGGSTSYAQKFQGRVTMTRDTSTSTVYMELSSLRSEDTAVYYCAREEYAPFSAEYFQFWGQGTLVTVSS VL: EIVLTQSPATLSLSPGERATLSCRASQSVSVYLAWYQQKPGQAPRLLIYDASNRATGIPARFSGSGSGTDFTLTISSLEPEDFAVYYCQQRSNWPPWTFGQGTKVEIKR ; retrieve measured ECL signal.
Solution: 288

Exercise: Fab VH1-46_IGHD6-6*01_IGHJ1*01 S102A/S103P/S104F/H111F (APFF) & L6_IGKJ1*01 S31H (Fab, V domains shown, Tested as Fab (CH1 with His6/Flag tags, kappa CL) made in E. coli; also called APFF / S31H) VH: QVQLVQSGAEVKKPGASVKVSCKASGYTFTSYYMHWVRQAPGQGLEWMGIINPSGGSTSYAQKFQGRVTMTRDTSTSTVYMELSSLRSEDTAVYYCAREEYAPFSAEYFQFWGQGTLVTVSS VL: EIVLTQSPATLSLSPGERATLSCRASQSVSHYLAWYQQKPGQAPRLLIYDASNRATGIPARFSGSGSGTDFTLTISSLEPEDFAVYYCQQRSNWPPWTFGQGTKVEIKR , same question.
Solution: 352

Exercise: Fab VH1-46_IGHD6-6*01_IGHJ1*01 S102A/S103P/S104F/H111F (APFF) & L6_IGKJ1*01 S31I (Fab, V domains shown, Tested as Fab (CH1 with His6/Flag tags, kappa CL) made in E. coli; also called APFF / S31I) VH: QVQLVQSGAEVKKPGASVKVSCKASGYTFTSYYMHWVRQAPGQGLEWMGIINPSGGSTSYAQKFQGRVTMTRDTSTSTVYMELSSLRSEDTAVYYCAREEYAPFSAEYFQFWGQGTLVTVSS VL: EIVLTQSPATLSLSPGERATLSCRASQSVSIYLAWYQQKPGQAPRLLIYDASNRATGIPARFSGSGSGTDFTLTISSLEPEDFAVYYCQQRSNWPPWTFGQGTKVEIKR , same question.
Solution: 303
